target-or-test-system: BCR-KIT BaF3 cells (Homo sapiens, UniProt P10721)
Construct: fused on or other part: P11274 (Breakpoint cluster region protein)
Sequence (P10721 589-937): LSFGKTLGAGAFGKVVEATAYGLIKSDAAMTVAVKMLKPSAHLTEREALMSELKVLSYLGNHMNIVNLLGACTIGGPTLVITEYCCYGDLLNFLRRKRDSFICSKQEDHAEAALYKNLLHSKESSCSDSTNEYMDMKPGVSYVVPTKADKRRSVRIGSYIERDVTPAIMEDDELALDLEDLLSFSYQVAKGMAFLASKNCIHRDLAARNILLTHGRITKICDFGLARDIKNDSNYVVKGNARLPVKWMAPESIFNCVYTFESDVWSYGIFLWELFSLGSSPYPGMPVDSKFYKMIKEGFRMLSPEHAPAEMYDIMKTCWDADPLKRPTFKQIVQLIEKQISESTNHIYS
method-summary: BaF3 BCR-KIT cell proliferation assay (ATPlite)
Format: cell-based
details: read-out: Inhibition of Cell Proliferation IC50, BCR/BaF3 Kit
property-measured: IC50

The examples below pair each entry with its known result.
CCOc1ccc(Nc2ncc(Cc3c[nH]c4ncc(C)cc34)cn2)cn1 :: < 100 nM
Fc1cc(Cc2c[nH]c3ncnc(NC4CC4)c23)cnc1NC1CCC(F)(F)CC1 :: < 100 nM
CCc1ccc(Nc2ccc(Cc3c[nH]c4ncnc(C)c34)c(F)n2)cn1 :: < 1000 nM
Fc1nc(NC2CCC(F)(F)CC2)ccc1Cc1c[nH]c2ncnc(NCC(F)(F)F)c12 :: < 1000 nM

Here are 8 molecules. What values of IC50 were reported for them?
1. Clc1cnc2[nH]cc(Cc3cnc(NC4CCCCCC4)nc3)c2c1
2. CCCNc1ncnc2[nH]cc(C(=O)c3ccc(Nc4ccc(CC)nc4)nc3F)c12
3. CCOc1ncnc2[nH]cc(C(=O)c3ccc(Nc4ccc(OC)nc4)nc3F)c12
4. CCc1ccc(Nc2ccc(C(=O)c3c[nH]c4ncnc(NC5CCC5)c34)c(F)n2)cn1
5. Clc1cnc2[nH]cc(Cc3cnc(NC4CC4)nc3)c2c1
6. CNc1ncnc2[nH]cc(C(=O)c3ccc(Nc4ccc(C(F)(F)F)nc4)nc3F)c12
7. CCCOc1ccc(Nc2ncc(Cc3c[nH]c4ncc(C)cc34)cn2)cc1
8. CCOc1ccc(Nc2ccc(Cc3c[nH]c4ncnc(OC)c34)c(F)n2)cn1

1: > 1000 nM; 2: < 100 nM; 3: > 1000 nM; 4: < 100 nM; 5: > 1000 nM; 6: < 100 nM; 7: < 100 nM; 8: < 100 nM

Here are 2 molecules. What values of IC50 were reported for them?
1. CCn1cc(Nc2ccc(Cc3c[nH]c4ncnc(C5CC5)c34)c(F)n2)cn1
2. CCc1ccc(Nc2ccc(C(=O)c3c[nH]c4ncnc(NC5CCOCC5)c34)c(F)n2)cn1

1: < 1000 nM; 2: < 100 nM

----------
These records show IC50 for TrkA kinase (Homo sapiens, UniProt P04629).

Here are 4 compounds. What values of IC50 were reported for them?
1. COc1cncc(Nc2ccc(C(=O)c3c[nH]c4ncnc(NC5CC5)c34)c(F)n2)c1 [Compound P-4107]
2. Cc1cnc2[nH]cc(Cc3cnc(Nc4ccc(F)cc4)nc3)c2c1 [Compound P-3010]
3. CCOc1ccc(Nc2ccc(Cc3c[nH]c4ncnc(OC)c34)c(F)n2)cn1 [Compound P-4005]
4. O=C(c1ccc(NC2CCC(F)(F)CC2)nc1F)c1c[nH]c2ncnc(NC3CC3)c12 [Compound P-4062]

["< 10 nM", "< 1000 nM", "< 100 nM", "< 10 nM"]

----------
These records show pIC50 for CYP2C9 (Homo sapiens, UniProt P11712).
pIC50: −log10 of the molar value.

The examples below pair each entry with its known result.
CNc1ncnc2[nH]cc(C(=O)c3ccc(Nc4ccc(OC)nc4)nc3F)c12 :: < 5.00
Fc1nc(Nc2ccc(C3CC3)nc2)ccc1Cc1c[nH]c2ncccc12 :: < 5.00
CCNc1ncnc2[nH]cc(C(=O)c3ccc(NC4CCC(F)(F)CC4)nc3Cl)c12 :: < 5.00

Here are 5 compounds. What values of pIC50 were reported for them?
1. CCCCNc1ncnc2[nH]cc(C(=O)c3ccc(Nc4ccc(OC)nc4)nc3F)c12
2. CCc1ccc(Nc2ccc(C(=O)c3c[nH]c4ncnc(NC(C)C)c34)c(F)n2)cn1
3. O=C(c1cnc(NC2CCC(F)(F)CC2)c(F)c1)c1c[nH]c2ncnc(NC3CC3)c12
4. CCC(C)Nc1ncnc2[nH]cc(C(=O)c3ccc(Nc4ccc(OC)nc4)nc3F)c12 (centres unmarked)
5. CCn1cc(Nc2ccc(C(=O)c3c[nH]c4ncnc(C5CC5)c34)c(F)n2)cn1

< 5.00
5.00 to 5.30
< 5.00
< 5.00
5.00 to 5.30

----------
These records show IC50 for CYP3A4(BQ) (Homo sapiens).

The examples below pair each entry with its known result.
CCc1ccc(Nc2ccc(C(=O)c3c[nH]c4ncnc(C5CC5)c34)c(F)n2)cn1 [Compound P-4029] :: > 10 µM
COc1ccc(Nc2ccc(C(=O)c3c[nH]c4ncnc(N[C@@H](C)c5ccc(F)cc5)c34)c(F)n2)cn1 [Compound P-4072] :: > 10 µM
CCc1ccc(Nc2ccc(C(=O)c3c[nH]c4ncnc(NC5CC5)c34)c(F)n2)cn1 [Compound P-4125] :: > 10 µM

Here are 3 compounds. What values of IC50 were reported for them?
1. CNc1ncnc2[nH]cc(C(=O)c3ccc(Nc4ccc(C(F)(F)F)nc4)nc3F)c12 [Compound P-4092]
2. O=C(c1ccc(NC2CCC(F)(F)CC2)nc1Cl)c1c[nH]c2ncnc(NC3CC3)c12 [Compound P-4059]
3. COc1ccc(Nc2ccc(C(=O)c3c[nH]c4ncnc(NC5CCC(F)(F)CC5)c34)c(F)n2)cn1 [Compound P-4056]

["> 10 µM", "> 10 µM", "> 10 µM"]

Here are 7 compounds. What values of IC50 were reported for them?
1. CCc1ccc(Nc2ccc(C(=O)c3c[nH]c4ncnc(NCCCOC)c34)c(F)n2)cn1 [Compound P-4098]
2. COc1ncnc2[nH]cc(Cc3ccc(Nc4ccc(C5CC5)nc4)nc3F)c12 [Compound P-4004]
3. CCc1ccc(Nc2ccc(Cc3c[nH]c4ncnc(C)c34)c(F)n2)cn1 [Compound P-4009]
4. CCc1ccc(Nc2ccc(C(=O)c3c[nH]c4ncnc(NC(C)C)c34)c(F)n2)cn1 [Compound P-4117]
5. O=C(c1ccc(NC2CCC(F)(F)CC2)nc1)c1c[nH]c2ncnc(NC3CC3)c12 [Compound P-4088]
6. Fc1cc(Cc2c[nH]c3ncnc(NC4CC4)c23)cnc1NC1CCC(F)(F)CC1 [Compound P-4127]
7. Fc1nc(Nc2ccc(C3CC3)nc2)ccc1Cc1c[nH]c2ncnc(NCC(F)(F)F)c12 [Compound P-4130]

["> 10 µM", "> 10 µM", "> 10 µM", "> 10 µM", "> 10 µM", "< 5 µM", "> 10 µM"]

Here are 2 compounds. What values of IC50 were reported for them?
1. COc1ncnc2[nH]cc(Cc3ccc(Nc4ccc(C)nc4)nc3F)c12 [Compound P-4010]
2. CNc1ncnc2[nH]cc(C(=O)c3ccc(NC4CCC(F)(F)CC4)nc3)c12 [Compound P-4089]

1: > 10 µM; 2: > 10 µM

Request - read-out IC50 | tested on CYP3A4(BQ) (Homo sapiens) | compound Cc1cnc2[nH]cc(C(=O)c3ccc(Nc4ccc(C)nc4)nc3F)c2c1 [Compound P-3043]
> 10 µM

----------
Consider the following compounds; for each one, report its IC50.
target-or-test-system: BCR-KIT BaF3 cells (Homo sapiens)
Construct: fused on or other part: P11274 (Breakpoint cluster region protein)
method-summary: BaF3 BCR-KIT cell proliferation assay (ATPlite)
details: read-out: Inhibition of Cell Proliferation IC50, BCR/BaF3 Kit

The examples below pair each entry with its known result.
Fc1ccc(Nc2ncc(Cc3c[nH]c4ncc(Cl)cc34)cn2)cc1 [Compound P-3012] :: < 1 µM
COc1ccc(Nc2ccc(C(=O)c3c[nH]c4ncnc(NCC5CCCO5)c34)c(F)n2)cn1 (centres unmarked) [Compound P-4073] :: < 1 µM
CCOc1ccc(Nc2ccc(C(=O)c3c[nH]c4ncc(C)cc34)c(F)n2)cn1 [Compound P-3045] :: < 1 µM
CCc1ccc(Nc2ccc(Cc3c[nH]c4ncnc(OC)c34)c(F)n2)cn1 [Compound P-4007] :: < 1 µM

Here are 2 compounds. What values of IC50 were reported for them?
1. COc1ccc(Nc2ccc(Cc3c[nH]c4ncnc(OC)c34)c(F)n2)cn1 [Compound P-4001]
2. Cc1ccc(Nc2ccc(Cc3c[nH]c4ncc(Cl)cc34)c(F)n2)cn1 [Compound P-3042]

1. < 1 µM
2. < 1 µM

Here are 2 compounds. What values of IC50 were reported for them?
1. Clc1cnc2[nH]cc(Cc3cnc(NC4CCC4)nc3)c2c1 [Compound P-3007]
2. CCc1ccc(Nc2ccc(C(=O)c3c[nH]c4ncnc(NC5CC5)c34)c(F)n2)cn1 [Compound P-4125]

> 10 µM
< 0.1 µM

----------
Consider the following molecules; for each one, report its IC50.
target-or-test-system: BCR-NTRK3 BaF3 cells (Homo sapiens, UniProt Q16288)
Construct: fused on or other part: P11274 (Breakpoint cluster region protein)
Sequence (Q16288 whole entry, the tested form may be a part): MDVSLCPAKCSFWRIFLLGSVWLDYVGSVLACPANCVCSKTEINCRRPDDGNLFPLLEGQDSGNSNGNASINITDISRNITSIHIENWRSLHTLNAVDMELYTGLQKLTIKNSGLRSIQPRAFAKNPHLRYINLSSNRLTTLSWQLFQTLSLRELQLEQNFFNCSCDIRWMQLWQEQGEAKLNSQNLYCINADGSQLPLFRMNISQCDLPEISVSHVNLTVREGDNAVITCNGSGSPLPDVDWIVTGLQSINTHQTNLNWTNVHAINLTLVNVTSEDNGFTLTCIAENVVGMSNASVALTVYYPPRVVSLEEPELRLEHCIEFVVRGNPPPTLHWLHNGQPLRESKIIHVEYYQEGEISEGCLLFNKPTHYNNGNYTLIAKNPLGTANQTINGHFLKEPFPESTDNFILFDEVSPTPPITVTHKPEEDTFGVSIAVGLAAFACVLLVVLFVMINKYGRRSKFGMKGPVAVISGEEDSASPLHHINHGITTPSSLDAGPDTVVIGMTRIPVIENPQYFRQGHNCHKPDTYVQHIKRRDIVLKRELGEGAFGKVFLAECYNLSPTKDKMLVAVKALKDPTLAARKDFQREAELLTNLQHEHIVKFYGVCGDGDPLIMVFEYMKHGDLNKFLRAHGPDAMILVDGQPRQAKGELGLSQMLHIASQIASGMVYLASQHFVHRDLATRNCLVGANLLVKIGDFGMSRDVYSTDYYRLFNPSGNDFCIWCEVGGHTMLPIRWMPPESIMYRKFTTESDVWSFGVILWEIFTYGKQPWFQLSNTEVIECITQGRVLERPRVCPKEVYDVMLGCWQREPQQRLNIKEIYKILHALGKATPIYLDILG
method-summary: BaF3 BCR-NTRK3 cell proliferation assay (ATPlite)
details: read-out: Inhibition of Cell Proliferation IC50, BCR/BaF3 TrkC

COc1ccc(Nc2ccc(C(=O)c3c[nH]c4ncnc(NCC5CCCO5)c34)c(F)n2)cn1 (stereo not shown) :: < 10 nM
CCN1CCC(Nc2ncnc3[nH]cc(C(=O)c4ccc(Nc5ccc(OC)nc5)nc4F)c23)CC1 :: < 10 nM
CCc1ccc(Nc2ccc(C(=O)c3c[nH]c4ncnc(NC5CCOCC5)c34)c(F)n2)cn1 :: < 10 nM
Nc1ncnc2[nH]cc(C(=O)c3ccc(Nc4ccc(C5CC5)nc4)nc3F)c12 :: < 10 nM
Fc1nc(NC2CCC(F)(F)CC2)ccc1Cc1c[nH]c2ncnc(NCC(F)(F)F)c12 :: < 100 nM
COc1cncc(Nc2ccc(C(=O)c3c[nH]c4ncnc(NC5CCCCC5)c34)c(F)n2)c1 :: < 100 nM
Cc1ccc(Nc2ccc(C(=O)c3c[nH]c4ncnc(C5CC5)c34)c(F)n2)cn1 :: < 10 nM
COc1ccc(Nc2ncc(Cc3c[nH]c4ncc(C)cc34)cn2)cc1F :: < 1000 nM
CCNc1ncnc2[nH]cc(C(=O)c3ccc(Nc4ccc(CC)nc4)nc3F)c12 :: < 10 nM
COc1ncnc2[nH]cc(Cc3ccc(Nc4ccc(Cl)nc4)nc3F)c12 :: < 100 nM

Here are 5 molecules. What values of IC50 were reported for them?
1. Clc1cnc2[nH]cc(Cc3cnc(NC4CCCCC4)nc3)c2c1
2. CCn1ccc(Nc2ncc(Cc3c[nH]c4ncc(C)cc34)cn2)n1
3. CCc1ccc(Nc2ccc(Cc3c[nH]c4ncnc(OC)c34)c(F)n2)cn1
4. O=C(c1ccc(NC2CCC(F)(F)CC2)nc1F)c1c[nH]c2ncnc(NCC(F)(F)F)c12
5. Cc1cnc2[nH]cc(C(=O)c3ccc(Nc4ccc(C)nc4)nc3F)c2c1

1: > 10000 nM; 2: < 100 nM; 3: < 10 nM; 4: < 10 nM; 5: < 100 nM

For Fc1nc(Nc2ccc(C3CC3)nc2)ccc1Cc1c[nH]c2ncnc(NCC(F)(F)F)c12 , what is its reported IC50?
< 10 nM
